systemTested: MshE (VC0405) (Vibrio cholerae)
Sequence (Q9KUV7 1-575): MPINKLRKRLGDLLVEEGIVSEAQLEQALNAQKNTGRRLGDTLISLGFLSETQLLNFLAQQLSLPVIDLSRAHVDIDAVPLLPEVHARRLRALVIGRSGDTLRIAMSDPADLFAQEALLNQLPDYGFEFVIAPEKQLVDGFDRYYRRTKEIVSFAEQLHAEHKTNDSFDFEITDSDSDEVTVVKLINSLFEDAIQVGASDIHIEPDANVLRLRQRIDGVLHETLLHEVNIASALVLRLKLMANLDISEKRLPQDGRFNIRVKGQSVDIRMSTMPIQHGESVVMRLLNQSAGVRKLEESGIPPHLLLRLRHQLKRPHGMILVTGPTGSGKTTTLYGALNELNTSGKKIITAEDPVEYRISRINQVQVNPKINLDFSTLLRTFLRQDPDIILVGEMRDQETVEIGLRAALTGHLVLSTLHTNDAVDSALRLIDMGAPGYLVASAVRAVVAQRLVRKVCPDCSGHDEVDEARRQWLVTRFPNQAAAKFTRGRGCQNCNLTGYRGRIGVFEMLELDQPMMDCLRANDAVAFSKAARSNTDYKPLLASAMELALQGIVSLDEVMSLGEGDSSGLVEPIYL
measure: pKd
Numbers only, as −log10 of the molar value.

Look up and report measured pKd for this entry: Nc1nc2c(ncn2[C@@H]2O[C@@H]3CO[P@](=O)(O)O[C@H]4[C@@H](O)[C@H](n5cnc6c(=O)[nH]c(N)nc65)O[C@@H]4CO[P@](=O)(O)O[C@H]3[C@H]2O)c(=O)[nH]1
5.72
